Provide the reported Percent Effect of each item.
target_or_test_system: AMP-activated protein kinase, AMPK (Homo sapiens) (UniProt P54646+O43741+P54619+Q9UGJ0+Q9Y478+Q13131+Q9UGI9)
assay_remarks: AMP-dependent Kinase enzyme assay. An in vitro enzyme assay that detects ADP turnover that is directly proportional to AMPK activity. This uses naive AMPK that is activated during the assay with MK-8722
Assay type: functional
Design: scale not given: direction of the effect not stated beside the values
settings: 30 µM
The answer is to be given in %; state only the numeric part.

GET /value?item= CC(O)CC(C)(C)CNC(=O)NCc1cccc(-n2ccnc2)c1 (stereo not drawn) &field=Percent Effect returns -1.99

GET /value?item= `CCOc1ccnc(N2CCN(C(=O)c3cn[nH]c3CC)CC2)n1` &field=Percent Effect returns -3.34

GET /value?item= `COC(=O)c1cccc(NC(=O)CN2CCN(S(C)(=O)=O)CC2)c1` &field=Percent Effect returns 0.0395

GET /value?item= `CC(C)C(=O)N1CCN(Cc2csc(-c3ncccn3)n2)CC1` &field=Percent Effect returns 9.34

GET /value?item= `O=C(Nc1ccc(CCN2CCC(O)CC2)cc1)Nc1cccnc1` &field=Percent Effect returns -3.72

GET /value?item= `Cc1nsc(C(=O)N2CCc3ccccc3C2)n1` &field=Percent Effect returns -4.33

GET /value?item= CCS(=O)(=O)NC(C(=O)NC)c1ccc(F)c(F)c1 (stereo not drawn) &field=Percent Effect returns -9.93

GET /value?item= `CCN(CC)C(=O)c1nnn(Cc2ccccc2)c1OC` &field=Percent Effect returns 3.11

GET /value?item= Clc1snnc1CN1CCOC(CNc2cccnn2)C1 (stereo not drawn) &field=Percent Effect returns -5.26

GET /value?item= `Cc1ccsc1C(=O)NCCCn1nc2ccccn2c1=O` &field=Percent Effect returns -0.37

GET /value?item= `COCCNC(=O)Nc1ccc(-n2cncn2)c(F)c1` &field=Percent Effect returns -12.8

GET /value?item= COC1COC2(CCN(Cc3ccccc3Cl)CC2)C1 (stereo not drawn) &field=Percent Effect returns 7.01

GET /value?item= `CCn1c(NCc2ccco2)nc2c(C)nn(C)c2c1=O` &field=Percent Effect returns 4.54
